Entry source: the supplement of paper PMC9512659

Test system: Mycobacterium tuberculosis Erdman (pMV306hsp+LuxG13)
Test: Einf, effect of the drug pair at infinite dose (maximum growth inhibition) (fraction inhibition (0-1)); higher = more potent; extreme values may be limits of the assay
Details: growth medium: standard 7H9 OADC glycerol; time point: constant = terminal time point (4.2 d)
measure.name: Einf

[[record]]
molecule = "CO[C@H]1/C=C/O[C@@]2(C)Oc3c(C)c(O)c4c(O)c(c(/C=N/N5CCN(C6CCCC6)CC5)c(O)c4c3C2=O)NC(=O)/C(C)=C\\C=C\\[C@H](C)[C@H](O)[C@@H](C)[C@@H](O)[C@@H](C)[C@H](OC(C)=O)[C@@H]1C [rifapentine] + CC(=O)NC[C@H]1CN(c2ccc(N3CCSCC3)c(F)c2)C(=O)O1"
experimental_result = 0.983

[[record]]
molecule = "CO[C@H]1/C=C/O[C@@]2(C)Oc3c(C)c(O)c4c(O)c(c(/C=N/N5CCN(C)CC5)c(O)c4c3C2=O)NC(=O)/C(C)=C\\C=C\\[C@H](C)[C@H](O)[C@@H](C)[C@@H](O)[C@@H](C)[C@H](OC(C)=O)[C@@H]1C [rifampicin] + CC(=O)NC[C@H]1CN(c2ccc(N3CCSCC3)c(F)c2)C(=O)O1 [sutezolid]"
experimental_result = 0.969

[[record]]
molecule = "CO[C@H]1/C=C/O[C@@]2(C)Oc3c(C)c(O)c4c(O)c(c(/C=N/N5CCN(C)CC5)c(O)c4c3C2=O)NC(=O)/C(C)=C\\C=C\\[C@H](C)[C@H](O)[C@@H](C)[C@@H](O)[C@@H](C)[C@H](OC(C)=O)[C@@H]1C [rifampicin] + CC(C)=CCC/C(C)=C/CNCCNC1C2CC3CC(C2)CC1C3 [SQ109]"
experimental_result = 0.909

